Quick list: pEC50 per entry.
ASSAY SYSTEM: hGIPR (Homo sapiens, UniProt P48546)
Sequence (P48546 22-466): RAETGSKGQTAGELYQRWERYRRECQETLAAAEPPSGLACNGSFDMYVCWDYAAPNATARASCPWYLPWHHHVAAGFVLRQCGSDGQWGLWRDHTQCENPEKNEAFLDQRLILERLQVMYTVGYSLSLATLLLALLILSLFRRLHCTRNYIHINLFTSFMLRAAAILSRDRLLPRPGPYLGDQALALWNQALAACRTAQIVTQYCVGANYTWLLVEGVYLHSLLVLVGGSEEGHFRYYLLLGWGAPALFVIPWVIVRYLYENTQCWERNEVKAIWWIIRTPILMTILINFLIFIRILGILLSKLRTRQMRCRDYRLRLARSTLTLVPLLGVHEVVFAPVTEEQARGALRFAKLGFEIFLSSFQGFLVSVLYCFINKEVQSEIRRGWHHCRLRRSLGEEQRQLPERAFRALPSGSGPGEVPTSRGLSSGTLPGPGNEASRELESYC
METHOD NOTES: Functional cAMP activation in the presence of 0.1% casein (no HSA);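 note: intracellular cAMP rise after 30 min at 37 °C read by HTRF against a standard curve, scaled between buffer alone (0%) and top control ligand concentration (100%), four-parameter fit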
Type: cell-based
CONDITION DETAILS: in the presence of 0.1% casein (no HSA); geometric mean; read-out: Relative cAMP EC50, hGIPR
pEC50: −log10 of the molar value. Starred links: 1 amine or outer side, 2 acyl side, 3 side chain; linkers in the order of their positions; H or OH if unused. Non-standard residues stand in square brackets, D forms with d. Groups on a side chain read outwards from the residue. No end group written: not given here. *: point of attachment. C18 diacid = O=C(O)CCCCCCCCCCCCCCCCC(=O)*; γGlu = O=C(O)[C@H](CCC(=O)[*:2])N[*:1]; αMe4Pal = C[C@](N)(Cc1ccncc1)C(=O)O; 4Pal = N[C@@H](Cc1ccncc1)C(=O)O; αMeL = CC(C)C[C@](C)(N)C(=O)O; Orn = NCCC[C@H](N)C(=O)O; AEEA = NCCOCCOCC(=O)O; Aib = CC(C)(N)C(=O)O
OBSERVED PROPERTY: pEC50

> print(dat)
                                  substance  observed.property  reported.value
1  H-Y[Aib]QGTFTSD[4Pal]SQ[αMeL]LDKK([AEEA-γGlu-C18 diacid])AQ[αMe4Pal]AFIEYLIE[Aib]GESSGAPPPSGS-NH2 [Example 226]              pEC50            9.90
2  H-Y[Aib]QGTFTSDFS[Orn][αMeL]LDKK([AEEA-γGlu-γGlu-C18 diacid])AQ[Aib]AFIEYLLE[Aib]GPSSGAPPPSGT-NH2 [Example 278]              pEC50           10.02
3  Y[Aib]QGTFTSD[4Pal]SQ[αMeL]LDKK([γGlu-dE-dE-C18 diacid])AQ[αMe4Pal]AFIEYLIE[Aib]GPSSGAPPPSGSE-NH2 [Example 926]              pEC50            9.78
4  Y[Aib]QGTFTSD[4Pal]SQ[αMeL]LDKK([AEEA-γGlu-C18 diacid])AQ[αMe4Pal]AFIEYLIE[Aib]GPSSGAPPPSGS-NH2 [Example 810]              pEC50            9.81
5  H-Y[Aib]QGTFTSD[4Pal]S[Orn][αMeL]LDKK([AEEA-γGlu-γGlu-C18 diacid])AQ[αMe4Pal]AFIEYLIE[Aib]GPSSGAPPPSGS-NH2 [Example 867]              pEC50            9.67
